system: NCI-H2087 (Lung Adenocarcinoma); assay: Bliss excess, mean over the matrix (fraction); higher = more synergy
Classes by Bliss excess: lo (below -0.06), mid (-0.06 to below -0.0008), hi (-0.0008 or more)

Some solved cases for reference:
# molecule, cat
rows = [
    ("Cc1cc2ncnn2cc1Nc1ncc2c(n1)n(C1CCOCC1)c(=O)n2C [AZD7648] + O=C(c1cc(Cc2n[nH]c(=O)c3ccccc23)ccc1F)N1CCN(C(=O)C2CC2)CC1 [Olaparib] (first compound max 10 µM, 7x7, partner max 10 µM)", "mid"),
    ("CN(CCO)CC[C@H](CSc1ccccc1)Nc1ccc(S(=O)(=O)NC(=O)c2ccc(N3CCC([C@@H](O)c4ccccc4-c4ccc(Cl)cc4)CC3)cc2)cc1S(=O)(=O)C(F)(F)F [AZD4320] + C1CN(CCC1(C(=O)N[C@@H](CCO)C2=CC=C(C=C2)Cl)N)C3=NC=NC4=C3C=CN4 [Capivasertib] (first compound max 1 µM, 7x7, partner max 3 µM)", "lo"),
    ("COc1cccc(OCCCN)c1-c1cc(Nc2cnc(C#N)cn2)n[nH]1 [Prexasertib] + C=CCn1c(=O)c2cnc(Nc3ccc(N4CCN(C)CC4)cc3)nc2n1-c1cccc(C(C)(C)O)n1 [AZD1775] (first compound max 1 µM, partner max 1 µM)", "hi"),
]

Band assignment needed for CS(=O)(=O)CCNCc1ccc(-c2ccc3ncnc(Nc4ccc(OCc5cccc(F)c5)c(Cl)c4)c3c2)o1 [Lapatinib] + Cn1cnc2c(F)c(Nc3ccc(Br)cc3Cl)c(C(=O)NOCCO)cc21 [Selumetinib] (first compound max 10 µM, 7x7, partner max 10 µM) please.
mid

Request: COc1nnc2ccc(N3CCC(c4ccc(OCCN5CCN(C)C(=O)[C@H]5C)cc4)CC3)nn12 [AZD5153] + CCN(CCO)CCCOc1ccc2c(Nc3cc(CC(=O)Nc4cccc(F)c4)[nH]n3)ncnc2c1 [AZD2811] (first compound max 1 µM, 7x7, partner max 1 µM)
lo

Request: COc1cccc2c1C(=O)c1c(O)c3c(c(O)c1C2=O)C[C@@](O)(C(=O)CO)C[C@@H]3O[C@H]1C[C@H](N)[C@H](O)[C@H](C)O1 [Doxorubicin] + Cc1cc2ncnn2cc1Nc1ncc2c(n1)n(C1CCOCC1)c(=O)n2C [AZD7648] (first compound max 1 µM, 7x7, partner max 10 µM)
hi

Request: CC(=O)c1c(C)c2cnc(Nc3ccc(N4CCNCC4)cn3)nc2n(C2CCCC2)c1=O [Palbociclib] + Cc1c2c(nn1C)CSCc1cc(n(C)n1)CSc1cc(c3ccccc3c1)OCCCc1c(C(=O)O)n(C)c3c-2c(Cl)ccc13 [AZD5991] (first compound max 10 µM, 7x7, partner max 1 µM)
mid

Request: Cn1cnc2c(F)c(Nc3ccc(Br)cc3Cl)c(C(=O)NOCCO)cc21 [Selumetinib] + CCN(CCO)CCCOc1ccc2c(Nc3cc(CC(=O)Nc4cccc(F)c4)[nH]n3)ncnc2c1 [AZD2811] (first compound max 10 µM, 7x7, partner max 1 µM)
mid

====

tested on: IM-9 (Non-Cancerous); assay: Bliss excess, mean over the matrix (fraction); higher = more synergy
Below: a set of entries, each annotated with reported Bliss excess.
Field format: numeric only.

# molecule, reported metric, obs value
records = [
    ("Cc1c2c(nn1C)CSCc1cc(n(C)n1)CSc1cc(c3ccccc3c1)OCCCc1c(C(=O)O)n(C)c3c-2c(Cl)ccc13 [AZD5991] + CC(=O)O[C@H]1C(=O)[C@@]2(C)[C@H]([C@H](OC(=O)c3ccccc3)[C@]3(O)C[C@H](OC(=O)[C@H](O)[C@@H](NC(=O)c4ccccc4)c4ccccc4)C(C)=C1C3(C)C)[C@]1(OC(C)=O)CO[C@@H]1C[C@@H]2O [Paclitaxel] (first compound max 1 µM, 7x7, partner max 3 µM)", "Bliss excess", 0.0008),
    ("COc1cccc(OCCCN)c1-c1cc(Nc2cnc(C#N)cn2)n[nH]1 [Prexasertib] + CCc1c2c(nc3ccc(O)cc13)-c1cc3c(c(=O)n1C2)COC(=O)[C@]3(O)CC [SN-38] (first compound max 1 µM, 7x7, partner max 0.3 µM)", "Bliss excess", 0.0077),
    ("Cc1c2c(nn1C)CSCc1cc(n(C)n1)CSc1cc(c3ccccc3c1)OCCCc1c(C(=O)O)n(C)c3c-2c(Cl)ccc13 [AZD5991] + C[C@@H]1COCCN1C2=NC(=NC(=C2)C3(CC3)[S@](=N)(=O)C)C4=C5C=CNC5=NC=C4 [AZD6738] (first compound max 1 µM, 7x7, partner max 10 µM)", "Bliss excess", -0.0532),
]

Give the measured Bliss excess of CCN(CCO)CCCOc1ccc2c(Nc3cc(CC(=O)Nc4cccc(F)c4)[nH]n3)ncnc2c1 [AZD2811] + C=CCn1c(=O)c2cnc(Nc3ccc(N4CCN(C)CC4)cc3)nc2n1-c1cccc(C(C)(C)O)n1 [AZD1775] (first compound max 1 µM, partner max 1 µM) .
-0.0297

====

tested on: GA-10 (Burkitt's Lymphoma); test: combination Emax (second highest fraction inhibited in the dose matrix, 72 h); higher = more inhibition; extreme values may be limits of the assay
reported metric: combination Emax
Field format: numeric only.

// below: answered compounds
# compound, combination Emax
rows = [
    ("CC(=O)c1c(C)c2cnc(Nc3ccc(N4CCNCC4)cn3)nc2n(C2CCCC2)c1=O [Palbociclib] + Cn1cnc2c(F)c(Nc3ccc(Br)cc3Cl)c(C(=O)NOCCO)cc21 [Selumetinib] (first compound max 10 µM, 7x7, partner max 10 µM)", 0.941),
    ("COc1nnc2ccc(N3CCC(c4ccc(OCCN5CCN(C)C(=O)[C@H]5C)cc4)CC3)nn12 [AZD5153] + C=CCn1c(=O)c2cnc(Nc3ccc(N4CCN(C)CC4)cc3)nc2n1-c1cccc(C(C)(C)O)n1 [AZD1775] (first compound max 1 µM, partner max 1 µM)", 0.996),
    ("COc1nnc2ccc(N3CCC(c4ccc(OCCN5CCN(C)C(=O)[C@H]5C)cc4)CC3)nn12 [AZD5153] + CC1(C)CCC(CN2CCN(c3ccc(C(=O)NS(=O)(=O)c4ccc(NCC5CCOCC5)c([N+](=O)[O-])c4)c(Oc4cnc5[nH]ccc5c4)c3)CC2)=C(c2ccc(Cl)cc2)C1 [Venetoclax] (first compound max 1 µM, 7x7, partner max 1 µM)", 0.693),
]

Now, please, on to the next compound.
Give the measured combination Emax of C[C@@H](c1ccc2nccn2c1)n1nnc2ncc(-c3cnn(C)c3)nc21 [Savolitinib] + CC1(C)CCC(CN2CCN(c3ccc(C(=O)NS(=O)(=O)c4ccc(NCC5CCOCC5)c([N+](=O)[O-])c4)c(Oc4cnc5[nH]ccc5c4)c3)CC2)=C(c2ccc(Cl)cc2)C1 [Venetoclax] (first compound max 1 µM, 7x7, partner max 1 µM) .
0.101

====

tested on: KP-N-YN (Neuroblastoma); assay: Bliss excess, mean over the matrix (fraction); higher = more synergy
Hi, to clarify the labels: MET covers Bliss excess from 0.03 upward, NOT MET covers anything below 0.03.

Some solved cases for reference:
# molecule, cat
measured = [
    ("COc1nnc2ccc(N3CCC(c4ccc(OCCN5CCN(C)C(=O)[C@H]5C)cc4)CC3)nn12 [AZD5153] + Cc1c2c(nn1C)CSCc1cc(n(C)n1)CSc1cc(c3ccccc3c1)OCCCc1c(C(=O)O)n(C)c3c-2c(Cl)ccc13 [AZD5991] (first compound max 1 µM, 7x7, partner max 1 µM)", "NOT MET"),
    ("Cc1cc2ncnn2cc1Nc1ncc2c(n1)n(C1CCOCC1)c(=O)n2C [AZD7648] + C=CCn1c(=O)c2cnc(Nc3ccc(N4CCN(C)CC4)cc3)nc2n1-c1cccc(C(C)(C)O)n1 [AZD1775] (first compound max 10 µM, partner max 1 µM)", "NOT MET"),
]

Exam item: decide whether the reported Bliss excess for O=C(c1cc(Cc2n[nH]c(=O)c3ccccc23)ccc1F)N1CCN(C(=O)C2CC2)CC1 [Olaparib] + CN(CC[C@H](CSC1=CC=CC=C1)NC2=C(C=C(C=C2)S(=O)(=O)NC(=O)C3=CC=C(C=C3)N4CCC(CC4)[C@H](C5=CC=CC=C5C6=CC=C(C=C6)Cl)O)S(=O)(=O)C(F)(F)F)CCO [AZD4320] (first compound max 10 µM, 7x7, partner max 1 µM) is at least 0.03.
MET

Request: CCc1c2c(nc3ccc(O)cc13)-c1cc3c(c(=O)n1C2)COC(=O)[C@]3(O)CC [SN-38] + O=C(c1cc(Cc2n[nH]c(=O)c3ccccc23)ccc1F)N1CCN(C(=O)C2CC2)CC1 [Olaparib] (first compound max 0.3 µM, 7x7, partner max 10 µM)
NOT MET

Request: Cc1nc(Nc2ncc(C(=O)Nc3c(C)cccc3Cl)s2)cc(N2CCN(CCO)CC2)n1 [Dasatinib] + CC(=O)Nc1cccc(-n2c(=O)n(C3CC3)c(=O)c3c(Nc4ccc(I)cc4F)n(C)c(=O)c(C)c32)c1 [Trametinib] (first compound max 2 µM, 7x7, partner max 1 µM)
NOT MET

Request: Cc1cc2ncnn2cc1Nc1ncc2c(n1)n(C1CCOCC1)c(=O)n2C [AZD7648] + O=C(c1cc(Cc2n[nH]c(=O)c3ccccc23)ccc1F)N1CCN(C(=O)C2CC2)CC1 [Olaparib] (first compound max 10 µM, 7x7, partner max 10 µM)
MET

Request: NC1(C(=O)N[C@@H](CCO)c2ccc(Cl)cc2)CCN(c2ncnc3[nH]ccc23)CC1 [Capivasertib] + CC(=O)c1c(C)c2cnc(Nc3ccc(N4CCNCC4)cn3)nc2n(C2CCCC2)c1=O [Palbociclib] (first compound max 10 µM, 7x7, partner max 10 µM)
NOT MET

Request: O=C(c1cc(Cc2n[nH]c(=O)c3ccccc23)ccc1F)N1CCN(C(=O)C2CC2)CC1 [Olaparib] + CC1(C)CCC(CN2CCN(c3ccc(C(=O)NS(=O)(=O)c4ccc(NCC5CCOCC5)c([N+](=O)[O-])c4)c(Oc4cnc5[nH]ccc5c4)c3)CC2)=C(c2ccc(Cl)cc2)C1 [Venetoclax] (first compound max 10 µM, 7x7, partner max 1 µM)
MET

Hey, just so you know, these numbers are from the supplement of paper PMC11061612.
